# measurement protocol: Antiporter activity in Escherichia coli K12 wild type EcNhaA F72C mutant assessed as effect on lithium chloride-induced pH changes by acridine orange fluorescence assay
experimental endpoint: IC50 (nM)
Report the value in nM with no unit label.

Input line: I'd like to know its IC50. The compound in question is NC1=Nc2cccc3cccc(c23)N1
Output line: 2600

---

# target of assay: Na(+)/H(+) antiporter NhaA (Escherichia coli K-12, UniProt P13738, W62C)
# measurement protocol: Antiporter activity in Escherichia coli K12 wild type EcNhaA W62C mutant assessed as effect on sodium chloride-induced pH changes by acridine orange fluorescence assay
experimental endpoint: IC50 (nM)
Write it as a number; the unit nM goes unstated.

Input line: What IC50 value was documented for this molecule, NC1=Nc2cccc3cccc(c23)N1 ?
Output line: 1200

---

# target of assay: Na(+)/H(+) antiporter NhaA (Escherichia coli K-12, UniProt P13738, H225Q)
# measurement protocol: Antiporter activity in Escherichia coli K12 wild type EcNhaA H225Q mutant assessed as effect on sodium chloride-induced pH changes by acridine orange fluorescence assay
experimental endpoint: IC50 (µM)
Report as a plain number; the unit µM is understood.

Input line: Any idea what its IC50 is? The compound is NC1=Nc2cccc3cccc(c23)N1
Output line: 0.8

---

# target of assay: Na(+)/H(+) antiporter NhaA (Escherichia coli K-12, UniProt P13738)
# Sequence (P13738 whole entry): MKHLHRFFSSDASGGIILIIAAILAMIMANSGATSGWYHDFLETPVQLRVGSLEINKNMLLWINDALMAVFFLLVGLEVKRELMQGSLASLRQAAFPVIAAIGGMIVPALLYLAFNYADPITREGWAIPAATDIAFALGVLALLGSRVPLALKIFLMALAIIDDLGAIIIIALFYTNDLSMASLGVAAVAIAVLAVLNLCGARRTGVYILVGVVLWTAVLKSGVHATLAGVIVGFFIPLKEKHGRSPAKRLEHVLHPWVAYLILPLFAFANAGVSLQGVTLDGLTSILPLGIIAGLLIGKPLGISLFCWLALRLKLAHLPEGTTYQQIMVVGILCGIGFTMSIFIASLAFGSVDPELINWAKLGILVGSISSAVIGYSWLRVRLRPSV
# measurement protocol: Antiporter activity in Escherichia coli K12 wild type EcNhaA assessed as effect on sodium chloride-induced pH changes by acridine orange fluorescence assay
experimental endpoint: IC50
Could you kindly put the unit after your number?

Input line: Consider the molecule NC1=Nc2cccc3cccc(c23)N1 and give its measured IC50.
Output line: 1700 nM

---

# target of assay: Na(+)/H(+) antiporter NhaA (Escherichia coli K-12)
# Sequence (P13738 whole entry): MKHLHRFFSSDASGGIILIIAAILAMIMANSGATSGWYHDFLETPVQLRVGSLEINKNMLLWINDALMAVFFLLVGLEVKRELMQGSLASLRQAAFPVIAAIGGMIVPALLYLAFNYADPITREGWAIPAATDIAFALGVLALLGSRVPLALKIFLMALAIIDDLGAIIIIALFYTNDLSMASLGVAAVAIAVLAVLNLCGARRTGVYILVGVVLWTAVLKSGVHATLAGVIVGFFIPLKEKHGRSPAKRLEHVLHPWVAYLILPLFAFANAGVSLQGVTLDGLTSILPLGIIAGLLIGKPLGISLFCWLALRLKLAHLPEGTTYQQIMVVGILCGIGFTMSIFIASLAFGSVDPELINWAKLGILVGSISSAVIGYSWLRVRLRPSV
# measurement protocol: Antiporter activity in Escherichia coli K12 wild type EcNhaA assessed as effect on lithium chloride-induced pH changes by acridine orange fluorescence assay
experimental endpoint: IC50

Input line: Suppose we examine the compound NC1=Nc2cccc3cccc(c23)N1 ; what IC50 value has been reported?
Output line: 2200 nM

---

# measurement protocol: Antiporter activity in Escherichia coli K12 wild type EcNhaA N64C mutant assessed as effect on lithium chloride-induced pH changes by acridine orange fluorescence assay
experimental endpoint: IC50

Input line: Item NC1=Nc2cccc3cccc(c23)N1 has what recorded IC50?
Output line: 17 µM

All values here come from ChEMBL document CHEMBL1156532.
